Reference source: patent US20230116972A1

Biological target: endogenous CD38 in HL60 cells (Homo sapiens)
Construct: endogenous in cells
Experiment: cellular CD38 assay in HL60 cells (cellular NAD levels)
Conditions: all-trans retinoic acid, 24 hours, read-out: hCD38 HL60 ATRA NAD Cell Diaphorase IC50
Readout type: IC50 (nM)
I only need the number, in nM, no unit after it.

Sample records with IC50:
O=C(N[C@H]1CC[C@H](NCC(F)(F)F)CC1)c1nccc(-n2ccnc2)n1	4170
Cc1ncc(-c2cncn2C)nc1C(=O)Nc1ccc(C(F)(F)F)nc1	1140
O=C(N[C@H]1C[C@H](c2cccc(F)c2)C1)c1nccc(-n2ccnc2)n1	2200
O=C(Nc1ccc(C(F)F)nc1)c1cc(C2CC2)nc(-c2cncs2)n1	2550
COc1cc(-c2cncn2C)nc(C(=O)Nc2ccc(C(F)F)nc2)n1	317

// returns reported IC50 for input O=C(Nc1ccnc(C(F)F)c1)c1cccc(-n2ccnc2)n1 298

// returns reported IC50 for input Cc1cc(C(=O)N[C@H]2CC[C@H](C(F)F)CC2)nc(-n2ccnc2)c1 1530

// returns reported IC50 for input CC(C)c1cc(C(=O)Nc2ccc(C(F)(F)F)nc2)nc(-c2cncn2C)n1 1780

// returns reported IC50 for input Cn1cncc1-c1cccc(C(=O)N[C@H]2CC[C@H](C(F)F)CC2)n1 3360

----------
Biological target: CYP2B6 (Homo sapiens)
Construct: from tissue; host or cells: human liver microsomes (pooled in the time-dependent assay)
Sequence (P20813 whole entry): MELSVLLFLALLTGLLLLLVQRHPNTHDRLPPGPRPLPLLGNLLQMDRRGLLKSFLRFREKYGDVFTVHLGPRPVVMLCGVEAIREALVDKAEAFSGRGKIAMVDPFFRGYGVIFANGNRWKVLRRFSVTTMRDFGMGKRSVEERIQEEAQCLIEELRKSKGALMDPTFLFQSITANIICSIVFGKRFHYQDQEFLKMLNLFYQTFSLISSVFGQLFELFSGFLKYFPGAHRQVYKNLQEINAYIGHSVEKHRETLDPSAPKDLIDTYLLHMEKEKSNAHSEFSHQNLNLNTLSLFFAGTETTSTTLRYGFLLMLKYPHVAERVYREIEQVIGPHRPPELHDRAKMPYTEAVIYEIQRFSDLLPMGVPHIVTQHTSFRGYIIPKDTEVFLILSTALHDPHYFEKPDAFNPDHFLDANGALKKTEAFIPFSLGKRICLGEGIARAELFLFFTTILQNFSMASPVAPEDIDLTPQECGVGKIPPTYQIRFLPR
Test: direct inhibition of CYP450 in human liver microsomes
Type: in vitro ADME
Conditions: 50 uM, % of non-inhibited control, read-out: CYP2B6 T0 % activity
Parameter threshold = 80%. Response is label 1 when activity at 50 µM meets or exceeds it, else label 0.

Known results for molecules:
CO[C@H]1CC[C@H](NC(=O)c2nccc(-n3ccnc3)n2)CC1 [Compound 145]	label 1
Cn1cncc1-c1ccnc(C(=O)Nc2ccc(C(C)(C)O)nc2)n1 [Compound 250]	label 1

Is activity at 50 µM for Cn1cncc1-c1ccnc(C(=O)N[C@H]2CC[C@H](O)CC2)n1 [Compound 256] at or above 80%? label 1

Is activity at 50 µM for CC(C)(O)c1ccc(NC(=O)c2nccc(-n3ccnc3)n2)cn1 [Compound 249] at or above 80%? label 1

Is activity at 50 µM for [2H]c1nc([2H])n(-c2nc(C)cc(C(=O)N[C@H]3CC[C@H](OCCOC)CC3)n2)c1[2H] [Comparator Compound A, reference compound] at or above 80%? label 0

Is activity at 50 µM for CO[C@H]1CC[C@H](NC(=O)c2cc(C3CCOCC3)nc(-c3cncn3C)n2)CC1 [Compound 199] at or above 80%? label 0

----------
Target: mouse CD38 (Mus musculus)
Sequence (P56528 1-304): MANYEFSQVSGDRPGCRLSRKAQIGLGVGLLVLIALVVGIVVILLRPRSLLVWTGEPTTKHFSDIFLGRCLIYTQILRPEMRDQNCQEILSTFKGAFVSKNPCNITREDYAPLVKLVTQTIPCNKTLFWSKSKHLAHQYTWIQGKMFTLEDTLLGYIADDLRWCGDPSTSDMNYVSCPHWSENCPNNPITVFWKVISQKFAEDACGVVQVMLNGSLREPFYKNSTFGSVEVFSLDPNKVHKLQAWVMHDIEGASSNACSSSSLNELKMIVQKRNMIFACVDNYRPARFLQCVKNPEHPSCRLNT
Experiment: mouse recombinant CD38 enzyme assay (hydrolysis of NAD+)
Settings: read-out: mCD38 BioChem IC50
pIC50: −log10 of the molar value.
Parameter threshold = 8. Response is yes (1) when pIC50 meets or exceeds it, else no (0).

Known results for compounds:
O=C(Nc1ccnc(C(F)F)c1)c1cccc(-n2ccnc2)n1	yes (1)
O=C(N[C@H]1C[C@H](c2ccccc2)C1)c1nccc(-n2ccnc2)n1	no (0)
O=C(Nc1ccc(C(F)(F)F)nc1)c1cccc(-n2cnnc2)n1	no (0)
O=C(Nc1ccc(C(F)F)nc1)c1cc(C2CC2)nc(-c2cncs2)n1	no (0)

Is pIC50 for CO[C@@H]1CC[C@@H](NC(=O)c2cccc(-n3ccnc3)n2)C1 at or above 8? no (0)

Is pIC50 for CC(C)c1cc(C(=O)Nc2ccc(C(F)(F)F)nc2)nc(-c2cncn2C)n1 at or above 8? yes (1)

Is pIC50 for Cn1cncc1-c1nc(C(=O)N[C@H]2C[C@H](C(C)(C)O)C2)cc(C2CCOCC2)n1 at or above 8? yes (1)

Is pIC50 for O=C(N[C@H]1C[C@H](c2ccc(F)cc2)C1)c1nccc(-n2ccnc2)n1 at or above 8? no (0)

----------
Biological target: CYP1A2 (Homo sapiens, UniProt P05177)
Construct: from tissue; host or cells: human liver microsomes (pooled in the time-dependent assay)
Sequence (P05177 whole entry): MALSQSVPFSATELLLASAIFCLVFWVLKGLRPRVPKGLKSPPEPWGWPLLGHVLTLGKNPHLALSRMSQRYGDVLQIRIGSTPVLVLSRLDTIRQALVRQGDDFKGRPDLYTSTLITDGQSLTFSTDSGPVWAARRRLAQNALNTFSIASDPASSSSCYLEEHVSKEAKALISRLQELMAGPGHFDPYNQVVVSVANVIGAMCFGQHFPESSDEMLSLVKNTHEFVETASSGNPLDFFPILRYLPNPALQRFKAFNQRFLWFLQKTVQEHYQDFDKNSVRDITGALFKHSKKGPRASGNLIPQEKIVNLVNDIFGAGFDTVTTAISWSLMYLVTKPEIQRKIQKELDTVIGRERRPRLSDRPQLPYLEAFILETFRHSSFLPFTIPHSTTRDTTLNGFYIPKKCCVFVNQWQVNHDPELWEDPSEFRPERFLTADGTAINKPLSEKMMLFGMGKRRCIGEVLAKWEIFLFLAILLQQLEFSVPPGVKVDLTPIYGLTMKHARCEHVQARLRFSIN
Experiment: direct inhibition of CYP450 in human liver microsomes
Assay type: in vitro ADME
Details: human, microsomes
Readout type: activity at 50 µM (%)
I only need the number, in %, no unit after it.

Sample records with activity at 50 µM:
CC(C)(O)c1ccc(NC(=O)c2nccc(-n3ccnc3)n2)cn1	81
Cn1cncc1-c1ccnc(C(=O)Nc2ccc(C(C)(C)O)nc2)n1	34

Now consider the entry below.
Recall the recorded activity at 50 µM for CO[C@H]1CC[C@H](NC(=O)c2nccc(-n3ccnc3)n2)CC1 with CYP1A2 (Homo sapiens, UniProt P05177) and state it. 79

----------
Biological target: mouse CD38 (Mus musculus)
Experiment: mouse recombinant CD38 enzyme assay (hydrolysis of NAD+)
Conditions: read-out: mCD38 BioChem IC50
Readout type: pIC50
# pIC50 is unitless: minus log10 of the molar concentration; print number only

Sample records with pIC50:
CO[C@H]1CC[C@H](NC(=O)c2nccc(-c3cncn3C)n2)CC1	7.64
O=C(N[C@H]1C[C@H](c2ccc(F)cc2F)C1)c1nccc(-n2ccnc2)n1	7.47
Cn1cncc1-c1nc(C(=O)N[C@H]2CC[C@H](OCC(F)(F)F)CC2)cc(C2CCC(F)(F)CC2)n1	8.70

Recall the recorded pIC50 for O=C(NC1CN(c2ccccc2)C1)c1nccc(-n2ccnc2)n1 with mouse CD38 (Mus musculus) and state it. 6.63

----------
Molecular target: CYP3A4 (Homo sapiens)
Construct: from tissue; host or cells: human liver microsomes (pooled in the time-dependent assay)
Sequence (P08684 whole entry): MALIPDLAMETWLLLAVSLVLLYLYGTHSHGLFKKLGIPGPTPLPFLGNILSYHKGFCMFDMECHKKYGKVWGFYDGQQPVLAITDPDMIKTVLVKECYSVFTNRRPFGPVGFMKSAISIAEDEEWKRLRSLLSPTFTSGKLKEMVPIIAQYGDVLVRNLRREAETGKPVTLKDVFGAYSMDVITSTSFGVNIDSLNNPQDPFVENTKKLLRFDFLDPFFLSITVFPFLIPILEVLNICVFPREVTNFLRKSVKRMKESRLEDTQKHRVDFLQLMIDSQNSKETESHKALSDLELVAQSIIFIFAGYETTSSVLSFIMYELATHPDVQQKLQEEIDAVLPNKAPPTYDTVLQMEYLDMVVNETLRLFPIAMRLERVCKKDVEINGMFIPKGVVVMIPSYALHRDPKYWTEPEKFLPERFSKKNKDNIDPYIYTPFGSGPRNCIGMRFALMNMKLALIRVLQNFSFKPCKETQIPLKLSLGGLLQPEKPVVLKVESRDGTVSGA
Test: time dependent inhibition of CYP450 in pooled human microsomes
Type: in vitro ADME
Details: pre-incubation 30 min (NO NADPH); read-out: CYP3A4-T IC50
Readout type: IC50

// returns reported IC50 for input CO[C@H]1CC[C@H](NC(=O)c2nccc(-c3cncn3C)n2)CC1 > 30 µM

----------
Target: endogenous CD38 in HL60 cells (Homo sapiens, UniProt P28907)
Construct: endogenous in cells; host or cells: HL60 (leukemic cells, treated with all-trans retinoic acid)
Sequence (P28907 whole entry): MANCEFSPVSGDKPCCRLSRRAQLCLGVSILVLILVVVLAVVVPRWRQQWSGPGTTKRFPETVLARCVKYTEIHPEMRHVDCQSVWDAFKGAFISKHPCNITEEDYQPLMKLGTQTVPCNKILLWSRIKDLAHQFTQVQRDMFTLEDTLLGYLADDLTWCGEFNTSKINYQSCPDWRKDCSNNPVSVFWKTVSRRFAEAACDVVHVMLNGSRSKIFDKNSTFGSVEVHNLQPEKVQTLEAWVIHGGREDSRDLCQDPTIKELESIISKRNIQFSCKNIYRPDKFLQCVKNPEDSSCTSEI
Assay: cellular CD38 assay in HL60 cells (cellular NAD levels)
Assay type: cell-based
Details: all-trans retinoic acid, 24 hours, read-out: hCD38 HL60 ATRA NAD Cell Diaphorase IC50
Listed next: entries and their corresponding IC50.
I only need the number, in µM, no unit after it.

// returns reported IC50 for input COCCO[C@H]1CC[C@H](NC(=O)c2nc(C)cc(-c3cncn3C)n2)CC1 [Compound 232] 7.29

// returns reported IC50 for input Cn1cncc1-c1nc(C(=O)N[C@H]2CC[C@H](O)CC2)cc(C2CCC(F)(F)CC2)n1 [Compound 288] 2.58

// returns reported IC50 for input Cn1cncc1-c1nc(C(=O)N[C@H]2CC[C@H](OC(F)F)CC2)cc(C2(C)COC2)n1 [Compound 311] 2.15

// returns reported IC50 for input Cn1cncc1-c1ccnc(C(=O)Nc2ccc(OC(F)F)nc2)n1 [Compound 276] 0.209

// returns reported IC50 for input Cn1cncc1-c1nccc(C(=O)N[C@H]2CC[C@H](C)CC2)n1 [Compound 85] 0.765

// returns reported IC50 for input O=C(N[C@H]1C[C@H](c2ccccc2)C1)c1nccc(-n2ccnc2)n1 [Compound 211] 2.01

----------
Molecular target: CYP2C9 (Homo sapiens, UniProt P11712)
Construct: from tissue; host or cells: human liver microsomes (pooled in the time-dependent assay)
Sequence (P11712 whole entry): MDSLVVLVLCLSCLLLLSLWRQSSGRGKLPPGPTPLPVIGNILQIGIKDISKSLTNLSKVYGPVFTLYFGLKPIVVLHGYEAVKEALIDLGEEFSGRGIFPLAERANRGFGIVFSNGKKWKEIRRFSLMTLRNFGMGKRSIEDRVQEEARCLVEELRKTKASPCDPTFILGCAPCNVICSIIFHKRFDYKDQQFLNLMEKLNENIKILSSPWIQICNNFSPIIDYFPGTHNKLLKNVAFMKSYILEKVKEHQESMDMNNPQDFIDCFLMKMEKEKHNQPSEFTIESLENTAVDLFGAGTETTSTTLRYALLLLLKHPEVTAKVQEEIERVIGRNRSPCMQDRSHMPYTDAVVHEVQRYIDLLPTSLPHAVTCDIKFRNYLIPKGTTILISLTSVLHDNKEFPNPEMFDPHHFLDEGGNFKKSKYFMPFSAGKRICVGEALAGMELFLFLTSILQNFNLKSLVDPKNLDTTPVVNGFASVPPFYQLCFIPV
Assay: direct inhibition of CYP450 in human liver microsomes
Format: in vitro ADME
Settings: 50 uM, % of non-inhibited control, read-out: CYP2C9 T0 % activity
Listed next: entries and their corresponding activity at 50 µM.
I only need the number, in %, no unit after it.

Sample records with activity at 50 µM:
CO[C@H]1CC[C@H](NC(=O)c2cc(C3(C)COC3)nc(-c3cncn3C)n2)CC1 [Compound 295]	63
Cn1cncc1-c1ccnc(C(=O)Nc2ccc(C(C)(C)O)nc2)n1 [Compound 250]	89
[2H]c1nc([2H])n(-c2nc(C)cc(C(=O)N[C@H]3CC[C@H](OCCOC)CC3)n2)c1[2H] [Comparator Compound A, reference compound]	24

// returns reported activity at 50 µM for input CO[C@H]1CC[C@H](NC(=O)c2cc(C3CCOCC3)nc(-c3cncn3C)n2)CC1 [Compound 199] 69
